meta.source: ChEMBL document CHEMBL4689842

What Population Hoechst High Intensity Objects (%) was measured for each of the following?
Tested on: HEK-293T
test name: Multiplex assay against HEK293T
Assay type: toxicity, cell-based
experimental setup: human, 24 h, 10 µM, compound concentration 10 uM, replicate 1
# include the unit after the value

The recorded Population Hoechst High Intensity Objects (%) for entry CC(C)c1noc(N2CCC(COc3ccc(-c4ccc(S(C)(=O)=O)cc4)nc3)CC2)n1 equals 23%

The recorded Population Hoechst High Intensity Objects (%) for entry COc1ccccc1CN[C@H]1C2CCN(CC2)[C@H]1C(c1ccccc1)c1ccccc1 equals 11%

The recorded Population Hoechst High Intensity Objects (%) for entry C=CC(=O)Nc1cccc(Oc2nc(Nc3ccc(N4CCN(C)CC4)cc3OC)ncc2Cl)c1 equals 8%

The recorded Population Hoechst High Intensity Objects (%) for entry CC(C)Oc1ccccc1C(=O)Nc1ccccc1C(=O)Nc1cccc(S(=O)(=O)C(F)(F)F)c1 equals 11%
